The measured values listed here are drawn from patent US10703764B2.

target: BRD4 BD1 (Homo sapiens, UniProt O60885); test: AlphaScreen binding assay, BRD4 Bromodomain 1
pIC50: −log10 of the molar value.
Measurement name: pIC50

{"Molecule": "CCNC(=O)Cn1cc(-c2ccc3c(c2)N(C(=O)C2CC2)CC(C)N3C(C)=O)cn1 (centres unmarked) [Example I-681]", "pIC50": "5.00 to 6.00"}
{"Molecule": "CC(C)OC(=O)N1C[C@H](C)N(C(=O)C2CC2)c2ccc(-c3cn(C)nn3)cc21 [Example I-482]", "pIC50": "6.00 to 7.00"}
{"Molecule": "CC(=O)N1c2ccc(-c3cnn(C4CCOCC4)c3)cc2N(C(=O)C2CC2)C[C@@H]1C [Example I-1302]", "pIC50": "6.00 to 7.00"}
{"Molecule": "CC(=O)N1c2ccccc2N(C(=O)c2ccc(Cl)cc2)C[C@@H]1C [Example I-743]", "pIC50": "< 5.00"}
{"Molecule": "CC(=O)N1c2ccc(-c3cnn(C4COC4)c3)cc2N(C(=O)Oc2ccc(F)cc2)C[C@@H]1C [Example I-85]", "pIC50": "> 7.00"}

Which pIC50 reading was recorded for the molecule CCS(=O)(=O)Nc1ccc(-c2ccc3c(c2)N(C(=O)OC2CCOCC2)C[C@H](C)N3C(C)=O)cc1 [Example I-1270] ?
6.00 to 7.00

Record request: pIC50 value, item CC(=O)N1c2ccc(-c3cnn(C4CC4)c3)cc2N(C(=O)OC(CF)CF)C[C@@H]1C [Example I-80]
6.00 to 7.00

Any idea what its pIC50 is? The molecule is COC(=O)N1c2ccc(-c3cnn(CC(F)(F)F)c3)cc2N(C(=O)OC(C)C)C[C@@H]1C [Example I-636]
6.00 to 7.00
